Source listed as PubChem BioAssay.

Experiment: yeast growth modulation, basal conditions, primary screen, YJM789 clinical isolate, OD600, 24 h (AID 1089);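 note: growth of clinical yeast isolate S. cerevisiae YJM 789 seeded 1000 cells per well; test concentration not given here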
Settings: S. cerevisiae YJM789 growth, higher = more signal, called active from +8 up or from −8 down
The source made the active and inactive calls.
Consider the following compounds and their measured z-score readings.

Recorded results for 3 compounds are shown here.
| cpd-smiles | z-score |
| --- | --- |
| O=C1C[C@@](C(=O)NCCN2CCOCC2)(c2ccc([N+](=O)[O-])cc2)[C@@H](c2ccc(CO)cc2I)N1CC12CC3CC(CC(C3)C1)C2 | -24.9 (active) |
| COCC(=C=CC[C@@H](O)c1cccc(OCCO)c1)C[C@@H](O)c1ccccn1 | 1.09 (inactive) |
| COCCCNC(=O)[C@@H]1c2ccccc2C(=O)N(Cc2ccccc2Cl)[C@H]1c1ccc(CO)cc1 | -0.103 (inactive) |

(Q) Find the recorded z-score belonging to CN(C)C(=O)[C@@]1(CCS(=O)(=O)c2ccccc2)COC(c2ccc(OCCCO)cc2)=N1 and report it.
(A) -0.126 (inactive)

---

# composite z-score per record follows
Test system: Noggin (protein binding on small-molecule microarray)
Assay: Noggin binders on small-molecule microarray, primary screen, biochemical, 635/667 nm fluorescence (AID 1095);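 note: score merges 667 nm feature fluorescence with signal to noise over triplicate slides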
Settings: 635 nm fluorescence, higher = more signal
Note: the reply should be a number with no unit written.

(Q) # input compound: C=C(C(=O)CC[C@@H](OC(=O)c1cccnc1)c1ccccc1OCCO)C(C)C ; wanted: its composite z-score
(A) 0.535

---

Experiment: basal HepG2 mitochondrial membrane potential changes, profiling panel, cell-based, JC-1 fluorescence, 24 h, 100 nL compound (AID 1167); note: test concentration not given here
Conditions: higher = more signal
In this scheme, each record receives a class according to its z-score; the ranges are range 1 (below -1), range 2 (-1 to below 0.9), range 3 (0.9 or more)

These solved cases illustrate the format of a correct answer.
| molecule | class-assignment |
| --- | --- |
| C=C(C)[C@@H]1CC=C(C(O)C2C=CC3C(=O)N(C)C(=O)C3N2Nc2ccccc2)CC1 (stereo not given in full) | range 2 |
| CC(C)C[C@@H]1NC(=O)[C@H](C(C)C)NC(=O)[C@@]23C(=O)N[C@@H](Cc4ccccc4)C2[C@H](C)[C@@]2(C)O[C@H]2C3/C=C/CC/C=C/CNC1=O (stereo not given in full) | range 2 |
| CC(C)N1C(=O)C[C@@](C(=O)NCC(F)(F)F)(c2ccc([N+](=O)[O-])cc2)[C@H]1c1ccc(CO)cc1 | range 2 |
| CCOC(=O)C[C@H]1[C@H](OC(=O)c2ccccc2-c2ccccc2)[C@@H](NC(=O)CC(C)C)c2cc(OCCCO)ccc2N1C(=O)Cc1ccc(OC)cc1 | range 3 |

(Q) // return the class label for COC(=O)[C@@]1(Cc2ccc(F)cc2)[C@H]2c3cc(C(=O)N(C)C)n(Cc4cc(F)c(F)c(F)c4)c3C[C@H]2CN1C(=O)c1ccccc1
(A) range 2

(Q) Please indicate the class for CC(C)OC(=O)C=C1C[C@@H](c2ccccn2)O[C@@H](c2ccccn2)O1 based on its z-score.
(A) range 2

(Q) Bin? COCCCNC(=O)[C@@H]1c2ccccc2C(=O)N(Cc2ccccc2Cl)[C@H]1c1ccc(CO)cc1
(A) range 3

(Q) Band for the recorded z-score of COC(=O)[C@H](Cc1ccccc1)N1CC2=C[C@@H](C3CC3)n3c(=O)n(C)c(=O)n3[C@H]2[C@@H]1[C@@H](O)Cc1ccccc1 ?
(A) range 3

(Q) Each molecule maps to one class by z-score. Which class for C=C(CCCC)/C(=C/C[C@@H](OC(=O)c1ccncc1)c1ccc(OCCO)cc1)c1cc(C(=O)OC)ccc1OC ?
(A) range 3

(Q) Lab log: O=C1[C@@]23C=C(Br)[C@H](C[C@@H]2CCOC3)[C@@]12CO2 — assign z-score category
(A) range 1

(Q) Which bin should I file CC(C)N1C(=O)[C@@]2(Cc3ccccc31)c1ccccc1C(=O)N(Cc1ccccc1Cl)[C@H]2c1ccc(CO)cc1 under?
(A) range 2

(Q) Given CN1C(=O)C2C=CC(C(O)c3ccc([N+](=O)[O-])cc3)N(N3CCCCC3)C2C1=O (stereo not given) , name the class its z-score places it in.
(A) range 1

(Q) Class? Entry: C=CCOC(=O)[C@@H]1[C@H]2C(=O)O[C@H](c3ccccc3)[C@H](c3ccccc3)N2[C@H](c2ccc(OCCOC(=O)[C@H]3C[C@H]4C(=O)N5CCC[C@H]5C(=O)N4[C@H]3c3ccc(O)cc3)cc2)[C@@]12C(=O)Nc1ccc(I)cc12
(A) range 1

(Q) Please report the category associated with CCCC[C@H]1OB(O)C[C@H]2C1=C(COC)C[C@H]1C(=O)N(C)C(=O)[C@H]12 , nothing else.
(A) range 1

(Q) Please classify: COc1cc2c(cc1O)C(C1CC1)N(Cc1sc3ccccc3c1Cl)CC2 (stereo not given)
(A) range 1
